Reported IC50 values for a set of compounds
- target.or.system: TBK1 (Homo sapiens, UniProt Q9UHD2)
- Sequence (Q9UHD2 1-729): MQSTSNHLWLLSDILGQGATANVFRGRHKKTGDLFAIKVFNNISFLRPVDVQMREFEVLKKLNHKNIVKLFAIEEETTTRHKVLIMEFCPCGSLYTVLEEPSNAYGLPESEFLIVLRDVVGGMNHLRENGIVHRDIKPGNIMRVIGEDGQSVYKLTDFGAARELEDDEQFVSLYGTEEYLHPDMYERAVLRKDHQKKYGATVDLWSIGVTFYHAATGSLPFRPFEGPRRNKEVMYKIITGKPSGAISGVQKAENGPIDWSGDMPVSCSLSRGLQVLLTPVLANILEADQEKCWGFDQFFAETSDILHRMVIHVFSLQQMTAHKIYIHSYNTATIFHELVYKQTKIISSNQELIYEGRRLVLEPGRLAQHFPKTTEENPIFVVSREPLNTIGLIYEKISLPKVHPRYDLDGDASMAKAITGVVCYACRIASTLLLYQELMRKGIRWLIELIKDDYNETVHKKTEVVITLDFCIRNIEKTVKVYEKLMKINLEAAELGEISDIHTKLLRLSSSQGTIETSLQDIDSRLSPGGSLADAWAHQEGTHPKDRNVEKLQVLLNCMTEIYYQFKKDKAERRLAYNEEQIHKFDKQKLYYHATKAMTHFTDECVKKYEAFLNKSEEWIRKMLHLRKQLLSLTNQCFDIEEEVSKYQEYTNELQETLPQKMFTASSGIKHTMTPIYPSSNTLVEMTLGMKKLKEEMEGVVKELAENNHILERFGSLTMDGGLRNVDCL
- assay.name: TBK Biochemical Assay
- experimental.parameters: read-out: TBK1 IC50

>  <compound>
COc1cc(C(=O)N2CCC(O)C2)ccc1-c1cc2nccc(-c3ccc(OC4CCOCC4)c(C#N)c3)c2o1 (stereo not shown)

>  <measured>
< 100 nM

$$$$

// query Please look at this compound and report its IC50: COc1cc(C(=O)N[C@H]2CCN(C)C2)ccc1-c1cc2nccc(-c3ccc(OC4CCOCC4)c(C#N)c3)c2o1
// result < 100 nM

// query Please look at this compound and report its IC50: COc1cc(C(=O)N2CC[C@H](O)C2)ccc1-c1cc2nccc(-c3ccc(NC4CCOCC4)c(C#N)c3)c2o1
// result < 100 nM

// query Please look at this compound and report its IC50: COc1cc(C(=O)N(C)C)cnc1-c1cc2nccc(-c3ccc(OC4CN(C)C4)c(C#N)c3)c2o1
// result 100 to 1000 nM

* * *

Reported IC50 values for a set of compounds
- target.or.system: UniProt:Q14164
- Sequence (Q14164 1-716): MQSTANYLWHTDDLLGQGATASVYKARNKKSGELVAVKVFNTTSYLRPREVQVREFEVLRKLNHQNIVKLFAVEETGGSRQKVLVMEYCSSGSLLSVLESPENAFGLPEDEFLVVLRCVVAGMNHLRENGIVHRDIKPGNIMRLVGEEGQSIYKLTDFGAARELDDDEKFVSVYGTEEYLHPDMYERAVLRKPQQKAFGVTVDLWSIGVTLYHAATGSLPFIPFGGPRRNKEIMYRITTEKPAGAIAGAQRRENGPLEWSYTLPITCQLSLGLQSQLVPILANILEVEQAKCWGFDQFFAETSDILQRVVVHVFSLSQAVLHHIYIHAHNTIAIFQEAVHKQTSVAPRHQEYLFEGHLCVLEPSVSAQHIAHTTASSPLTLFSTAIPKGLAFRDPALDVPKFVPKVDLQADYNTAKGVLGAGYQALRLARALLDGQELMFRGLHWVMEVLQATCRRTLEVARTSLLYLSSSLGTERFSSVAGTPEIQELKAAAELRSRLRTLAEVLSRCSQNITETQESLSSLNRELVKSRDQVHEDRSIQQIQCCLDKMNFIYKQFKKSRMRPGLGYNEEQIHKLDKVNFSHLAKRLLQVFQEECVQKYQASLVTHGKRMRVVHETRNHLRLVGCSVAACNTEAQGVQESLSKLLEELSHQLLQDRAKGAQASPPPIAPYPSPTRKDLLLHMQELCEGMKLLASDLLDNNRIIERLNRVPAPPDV
- assay.name: IKKe Biochemical Assay
- experimental.parameters: read-out: IKKε IC50

Examples from the recorded data:
>  <compound>
COc1cc(C(=O)N2C[C@@H]3C[C@H]2CN3C)ccc1-c1cc2nccc(-c3ccc(NC4CCOCC4)c(C#N)c3)c2o1

>  <measured.property>
IC50

>  <measured>
< 100 nM

$$$$
>  <compound>
COc1cc(C(=O)N(C)C)ccc1-c1cc2nccc(-c3cc(F)c(NC4CCOCC4)c(C#N)c3)c2o1

>  <measured.property>
IC50

>  <measured>
< 100 nM

$$$$
>  <compound>
COc1cc(C(=O)N(C)C)ccc1-c1cc2nccc(-c3cc(C#N)c(OC4CCOCC4)cn3)c2o1

>  <measured.property>
IC50

>  <measured>
100 to 1000 nM

$$$$

Consider now this further compound.
// query Please look at this compound and report its IC50: COc1cc(C(=O)N2CCC(CO)C2)ccc1-c1cc2nccc(-c3ccc(N4CC[C@H](F)C4)c(C#N)c3)c2o1 (stereo partly shown)
// result < 100 nM
